Tested on: PC-3 PIP/flu tumor-bearing mice
Test: Biodistribution studies in PC-3 PIP/flu tumor-bearing mice
Conditions: 24 h p.i.
For each entry below, report its Intestines value.
Give the value, in units of % IA/g, as a plain number.

Recorded Intestines of O=C(O)CCC(NC(=O)NC(CCCCNC(=O)C(Cc1ccc2ccccc2c1)NC(=O)C1CCC(CNC(=O)C(CCCCNC(=O)CCCc2ccc(I)cc2)NC(=O)CN2CCN(CC(=O)O)CCN(CC(=O)O)CCN(CC(=O)O)CC2)CC1)C(=O)O)C(=O)O (stereo not shown) [^177Lu-PSMA-ALB-03, metal not drawn] , please.
2.19

Reported Intestines for Cc1ccc(CCCC(=O)NCCCCC(NC(=O)CN2CCN(CC(=O)O)CCN(CC(=O)O)CCN(CC(=O)O)CC2)C(=O)NCC2CCC(C(=O)NC(Cc3ccc4ccccc4c3)C(=O)NCCCCC(NC(=O)NC(CCC(=O)O)C(=O)O)C(=O)O)CC2)cc1 (stereo not shown) [^177Lu-PSMA-ALB-06, metal not drawn] : what is it?
0.30

Could you tell me which Intestines is on file for Cc1ccc(CCCC(=O)NC(CC(=O)NC(CC(=O)NC(CC(=O)NC(CCCCNC(=O)CN2CCN(CC(=O)O)CCN(CC(=O)O)CCN(CC(=O)O)CC2)C(=O)NCC2CCC(C(=O)NC(Cc3ccc4ccccc4c3)C(=O)NCCCCC(NC(=O)NC(CCC(=O)O)C(=O)O)C(=O)O)CC2)C(=O)O)C(=O)O)C(=O)O)cc1 (stereo not shown) [^177Lu-PSMA-ALB-08, metal not drawn] ?
0.03

So what does the record say about Intestines for O=C(O)CCC(NC(=O)NC(CCCCNC(=O)C(Cc1ccc2ccccc2c1)NC(=O)C1CCC(n2cc(CC(NC(=O)CN3CCN(CC(=O)O)CCN(CC(=O)O)CCN(CC(=O)O)CC3)C(=O)NC(CCCCNC(=O)CCCc3ccc(I)cc3)C(=O)O)nn2)CC1)C(=O)O)C(=O)O (stereo not shown) [^177Lu-PSMA-ALB-01, metal not drawn] ?
2.12
